Every entry's value here was drawn from PubChem BioAssay (NCI).

Test system: SK-MEL-5 melanoma
Run description: NCI tumour cell line growth inhibition, 48 h; in the data active means GI50 below about 0.43 µM; inactive means the rest
Outcomes: active, inactive

cpd_smiles=c1ccc2cc(Cn3cc[n+](Cc4ccc5ccccc5c4)c3)ccc2c1 discrete_label=active
cpd_smiles=COc1cc(-c2nn(-c3cccc(NC(=O)NCCNS(=O)(=O)c4ccc(Cl)cc4)c3)cc2-c2ccncc2)ccc1Cl discrete_label=inactive
cpd_smiles=Cc1ccc2[nH]c3c(c2c1)N=c1ccccc1=NO3 discrete_label=inactive
cpd_smiles=COc1cccc(-n2ncc3c(N/N=C/c4ccc(C)cc4)ncnc32)c1 discrete_label=inactive
cpd_smiles=O=C1/C(=C/c2ccc(F)c(F)c2)CN(C(=O)C(Cl)Cl)C/C1=C\c1ccc(F)c(F)c1 discrete_label=active
cpd_smiles=C=CCNc1nc(O)c(/C=C2\C=Nc3ncccc32)s1 discrete_label=inactive
cpd_smiles=CC/C=C\C[C@H](O)C/C=C1/C(=O)C=C[C@@H]1C/C=C\CCCC(=O)OC(C)C discrete_label=inactive
cpd_smiles=CCCCCCCCCCCC[N+](C)(C)Cc1ccccc1 discrete_label=inactive
cpd_smiles=O=C1OCC(c2ccc(O)cc2)=C1c1cc(O)c(O)c(O)c1 discrete_label=inactive
cpd_smiles=C=C1C(=O)O[C@H]2[C@H]1CC/C(COC(=O)c1cn(C)c3ccccc13)=C\CC[C@@]1(C)O[C@@H]21 discrete_label=inactive

###

Test system: M14 melanoma
Run description: NCI tumour cell line growth inhibition, 48 h
*1 amine or outer side, *2 acyl side, *3 side chain or, on linkers, in order; H or OH if unused. Where a SMILES comes first, the peptide text is derived from it. Bridges are numbered along the chain shown (N, C = ends). Roman numbers before positions name the chains, in order. [ ]: non-standard residue; d: D form. The star is where a group is joined. Actinocin(9to1) = Cc1c2oc3c(C)ccc(C(=O)[*:1])c3nc-2c(C(=O)[*:2])c(N)c1=O; X28 = COC1=CC(=O)N(C(=O)[C@@H](O*)C(C)C)[C@H]1Cc1ccccc1; Bn2Val = CC(C)[C@@H](C(=O)*)N(Cc1ccccc1)Cc1ccccc1; NMeV = CN[CH](C(=O)O)C(C)C; dNMeA = CN[C@H](C)C(=O)O; Sar = CNCC(=O)O
Property label: TGI

compound=CCCCCCCN(CCCCCCC)C(=N)c1ccnc2ccccc12 target_desc="M14 melanoma" property_label=TGI result="2.76 µM"
compound=CC(=O)NNC(=S)/N=C\c1c(O)c2ccccc2oc1=O target_desc="M14 melanoma" property_label=TGI result="> 100 µM"
compound=NC(=S)Nc1ccc2c(c1)oc1ccccc12 target_desc="M14 melanoma" property_label=TGI result="> 100 µM"
compound="C=C1C2C[C@@H]3OC4CC5O[C@]6(CC5OC4C(C)C3OC(=O)CC3CC[C@@H]4OC5C7OC8C[C@](CCC9CC(=C)[C@H](CCC(C[C@H]1C)O2)O9)(OC7C4O3)O[C@@H]85)C[C@@H]1O[C@@]2(CC(C)[C@@H]3OC(CC(=O)CCO)C(O)C[C@@H]3O2)CC(C)[C@@H]1O6 (some centres not stated)" target_desc="M14 melanoma" property_label=TGI result="0.17 µM"
compound=CC(C(=O)NCCNC(=O)CCC(=O)N(C)O)C(=O)NCCNC(=O)CCC(=O)N(C)O target_desc="M14 melanoma" property_label=TGI result="> 100 µM"
compound=COc1ccc(C(C#N)=C2C=CC(=NO)C=C2)cc1 target_desc="M14 melanoma" property_label=TGI result="19.6 µM"
compound="COCCOC(C)C(=O)C(O)S(=O)(=O)O (configuration not stated)" target_desc="M14 melanoma" property_label=TGI result="> 100 µM"
compound=COc1ccc(OC)c(NC2=NCCO2)c1 target_desc="M14 melanoma" property_label=TGI result="> 100 µM"
compound="CC1(C)OC2CC3COC(=O)C3CC2O1 (configuration not stated)" target_desc="M14 melanoma" property_label=TGI result="> 100 µM"
compound=CCCc1n[nH]c(=O)n1N1C(=O)C=CC1=O target_desc="M14 melanoma" property_label=TGI result="> 100 µM"
compound=COc1cc(O)c(C(=O)CC(C)=O)c(OC)c1 target_desc="M14 melanoma" property_label=TGI result="> 100 µM"
compound=O=C1NCN(c2ccccc2)C12CCN(CCCC(c1ccc(F)cc1)c1ccc(F)cc1)CC2 target_desc="M14 melanoma" property_label=TGI result="3.18 µM"
compound="Cc1cc(Br)cc(C)c1NC(=O)C(=O)C(C(=O)c1ccncc1)C1OC(=O)c2ccccc21 (configuration not stated)" target_desc="M14 melanoma" property_label=TGI result="> 100 µM"
compound="O=C(O)C1CCN(Cc2oc(CO)cc(=O)c2O)C1 (configuration not stated)" target_desc="M14 melanoma" property_label=TGI result="> 100 µM"
compound=CCNc1cc2oc(=O)cc(C(F)(F)F)c2cc1C target_desc="M14 melanoma" property_label=TGI result="> 100 µM"
compound="O=C1C=C2C=CC3CC2(O1)C1CCCCN31 (configuration not stated)" target_desc="M14 melanoma" property_label=TGI result="> 100 µM"
compound=O=C(/C=C/c1ccc(OCc2ccccc2)cc1)NCc1ccc(C(=O)NCc2ccccc2)cc1 target_desc="M14 melanoma" property_label=TGI result="> 100 µM"
compound="O=C(O)CN1CCCC(Cc2c[nH]c3ccccc23)C1 (configuration not stated)" target_desc="M14 melanoma" property_label=TGI result="> 100 µM"
compound=Clc1ccccc1[C@@H]1C[C@@H]2Cc3cc(Br)c4ccccc4c3N1O2 target_desc="M14 melanoma" property_label=TGI result="> 100 µM"
compound="CCC[CH2][Sn]([CH2]CCC)([CH2]CCC)[O]C(=O)C(OC(C)=O)c1ccccc1 (configuration not stated)" target_desc="M14 melanoma" property_label=TGI result="0.267 µM"
compound=N#C/C(=C/n1c(=S)[nH]c2ccccc21)C(N)=O target_desc="M14 melanoma" property_label=TGI result="> 100 µM"
compound=COC1=CC(=O)C(Br)=CC1=O target_desc="M14 melanoma" property_label=TGI result="33.5 µM"
compound=COc1cccc(-n2ncc3c(N/N=C/c4ccc(C)cc4)ncnc32)c1 target_desc="M14 melanoma" property_label=TGI result="> 25 µM"
compound=N=c1n(CC(=O)NC23CC4CC(CC(C4)C2)C3)c2ccccc2n1CC(=O)NC12CC3CC(CC(C3)C1)C2 target_desc="M14 melanoma" property_label=TGI result="3.38 µM"
compound=Cc1ccc(-c2c(C#N)[n+](=O)c3cc(F)c(F)cc3n2[O-])cc1 target_desc="M14 melanoma" property_label=TGI result="5.73 µM"
compound="CC(C)(C)c1cc(C(=O)C2Cc3ccccc3C(=O)O2)cc(C(C)(C)C)c1O (configuration not stated)" target_desc="M14 melanoma" property_label=TGI result="25.6 µM"
compound=Brc1c2nc3ccccc3nc2n2ccc3ccccc3c12 target_desc="M14 melanoma" property_label=TGI result="> 100 µM"
compound=COc1cc(N)c2[nH]c3c(C)ccc(C)c3c2c1 target_desc="M14 melanoma" property_label=TGI result="> 100 µM"
compound=Cc1ccc(/C(O)=C/c2nc3cccnc3[nH]c2=O)cc1 target_desc="M14 melanoma" property_label=TGI result="> 100 µM"
compound="COC1=CC(=O)N(C(=O)[C@@H](OC(=O)[C@@H](C)N(C)C(=O)[C@@H]2CCCN2C(=O)[C@H](C(C)C)N(C)C(=O)[C@@H](NC(=O)[C@H](C(C)C)N(Cc2ccccc2)Cc2ccccc2)C(C)C)C(C)C)[C@H]1Cc1ccccc1 (Bn2Val-V[NMeV]P[dNMeA]-X28)" target_desc="M14 melanoma" property_label=TGI result="> 100 µM"
compound=Oc1cc(O)c2c(c1)O[C@H](c1cc(O)c(O)c(O)c1)[C@@H](O)C2 target_desc="M14 melanoma" property_label=TGI result="57.6 µM"
compound="O=C1NC(O)c2ccccc2O1 (configuration not stated)" target_desc="M14 melanoma" property_label=TGI result="> 100 µM"
compound="C/C(=N\\NC(=O)CC#N)C(CN1CCCCC1)C(c1ccccc1)c1c(O)c2ccccc2oc1=O (configuration not stated)" target_desc="M14 melanoma" property_label=TGI result="> 100 µM"
compound=C[C@]12CC[C@@H]3c4ccc(O)cc4CC[C@H]3[C@@H]1CC[C@@H]2NS(=O)(=O)c1cccc(Cl)c1 target_desc="M14 melanoma" property_label=TGI result="6.35 µM"
compound="CCN(CC)CCC(=O)OC1C(C)=CC(C)C(=O)CC(C(C)CC2CCC(O)C(OC)C2)OC(=O)C2CCCCN2C(=O)C(=O)[C@@]2(O)OC(CCC2C)CC(OC)\\C(C)=C/C=C/C=C/C(C)CC(C)C(=O)C1OC (some centres not stated)" target_desc="M14 melanoma" property_label=TGI result="22.6 µM"
compound="Cc1c2oc3c(C)ccc(C(=O)OC(C)C4NC(=O)C(C(C)C)N(C)C(=O)CN(C)C(=O)C5CCCN5C(=O)C(C(C)C)NC4=O)c3nc-2c(C(=O)OC(C)C2NC(=O)C(C(C)C)N(C)C(=O)CN(C)C(=O)C3CCCN3C(=O)C(C(C)C)NC2=O)c(N)c1=O (configuration not stated) (I: cyclo([Sar][NMeV]TVP) / II: cyclo([Sar][NMeV]TVP); linker I:3-II:3 via Actinocin(9to1); configuration not given here)" target_desc="M14 melanoma" property_label=TGI result="0.0517 µM"
compound=N=S(=O)(c1ccccc1)c1ccccc1 target_desc="M14 melanoma" property_label=TGI result="> 100 µM"
